molecular target: ATP-dependent RNA helicase DHX29 (Homo sapiens, UniProt Q7Z478)
Sequence (Q7Z478 whole entry): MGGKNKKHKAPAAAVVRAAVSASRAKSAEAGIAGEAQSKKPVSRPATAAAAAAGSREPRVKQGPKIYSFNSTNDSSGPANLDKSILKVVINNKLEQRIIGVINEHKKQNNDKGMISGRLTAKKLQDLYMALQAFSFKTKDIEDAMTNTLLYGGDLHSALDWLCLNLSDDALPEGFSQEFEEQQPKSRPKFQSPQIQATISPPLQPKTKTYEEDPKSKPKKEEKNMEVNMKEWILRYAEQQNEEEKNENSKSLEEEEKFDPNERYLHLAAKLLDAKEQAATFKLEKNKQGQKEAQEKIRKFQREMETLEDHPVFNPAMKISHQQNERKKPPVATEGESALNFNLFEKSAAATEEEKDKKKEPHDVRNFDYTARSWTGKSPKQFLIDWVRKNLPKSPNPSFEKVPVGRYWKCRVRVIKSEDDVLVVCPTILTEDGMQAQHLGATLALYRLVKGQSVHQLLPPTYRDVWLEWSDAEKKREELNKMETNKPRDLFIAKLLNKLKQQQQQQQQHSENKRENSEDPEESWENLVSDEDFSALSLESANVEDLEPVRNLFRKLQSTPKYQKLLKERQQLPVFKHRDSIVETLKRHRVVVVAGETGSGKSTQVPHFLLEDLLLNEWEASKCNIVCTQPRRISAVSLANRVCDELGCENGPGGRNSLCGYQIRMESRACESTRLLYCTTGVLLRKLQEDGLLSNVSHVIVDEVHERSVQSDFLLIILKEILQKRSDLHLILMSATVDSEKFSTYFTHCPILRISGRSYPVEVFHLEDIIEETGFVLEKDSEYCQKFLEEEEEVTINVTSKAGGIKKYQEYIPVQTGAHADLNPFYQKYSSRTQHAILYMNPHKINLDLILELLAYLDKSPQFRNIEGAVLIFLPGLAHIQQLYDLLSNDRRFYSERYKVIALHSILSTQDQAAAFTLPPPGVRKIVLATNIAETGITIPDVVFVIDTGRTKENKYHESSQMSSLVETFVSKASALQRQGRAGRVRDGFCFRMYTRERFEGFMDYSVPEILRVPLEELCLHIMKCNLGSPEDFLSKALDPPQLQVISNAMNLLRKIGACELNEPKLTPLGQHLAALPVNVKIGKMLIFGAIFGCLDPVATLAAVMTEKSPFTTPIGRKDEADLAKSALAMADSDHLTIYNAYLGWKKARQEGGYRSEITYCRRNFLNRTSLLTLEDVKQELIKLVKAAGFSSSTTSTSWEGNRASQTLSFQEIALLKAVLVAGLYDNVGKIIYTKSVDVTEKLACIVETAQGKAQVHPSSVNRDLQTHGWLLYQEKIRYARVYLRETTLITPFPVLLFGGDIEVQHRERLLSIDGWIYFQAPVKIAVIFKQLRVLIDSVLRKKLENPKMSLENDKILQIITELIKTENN
observation-type: IC50

Query: Form field: IC50 recorded for O=C(c1cnn2cc(Br)ccc12)N1CCN(C(=O)c2ccc(Br)cc2)[C@@H](c2ccc(Cl)cc2)C1 with ATP-dependent RNA helicase DHX29 (Homo sapiens, UniProt Q7Z478) (enter value)
Response: > 100 µM

---

molecular target: U5 small nuclear ribonucleoprotein 200 kDa helicase (Homo sapiens, UniProt O75643); experiment: ATPase enzyme assay
Sequence (O75643 whole entry): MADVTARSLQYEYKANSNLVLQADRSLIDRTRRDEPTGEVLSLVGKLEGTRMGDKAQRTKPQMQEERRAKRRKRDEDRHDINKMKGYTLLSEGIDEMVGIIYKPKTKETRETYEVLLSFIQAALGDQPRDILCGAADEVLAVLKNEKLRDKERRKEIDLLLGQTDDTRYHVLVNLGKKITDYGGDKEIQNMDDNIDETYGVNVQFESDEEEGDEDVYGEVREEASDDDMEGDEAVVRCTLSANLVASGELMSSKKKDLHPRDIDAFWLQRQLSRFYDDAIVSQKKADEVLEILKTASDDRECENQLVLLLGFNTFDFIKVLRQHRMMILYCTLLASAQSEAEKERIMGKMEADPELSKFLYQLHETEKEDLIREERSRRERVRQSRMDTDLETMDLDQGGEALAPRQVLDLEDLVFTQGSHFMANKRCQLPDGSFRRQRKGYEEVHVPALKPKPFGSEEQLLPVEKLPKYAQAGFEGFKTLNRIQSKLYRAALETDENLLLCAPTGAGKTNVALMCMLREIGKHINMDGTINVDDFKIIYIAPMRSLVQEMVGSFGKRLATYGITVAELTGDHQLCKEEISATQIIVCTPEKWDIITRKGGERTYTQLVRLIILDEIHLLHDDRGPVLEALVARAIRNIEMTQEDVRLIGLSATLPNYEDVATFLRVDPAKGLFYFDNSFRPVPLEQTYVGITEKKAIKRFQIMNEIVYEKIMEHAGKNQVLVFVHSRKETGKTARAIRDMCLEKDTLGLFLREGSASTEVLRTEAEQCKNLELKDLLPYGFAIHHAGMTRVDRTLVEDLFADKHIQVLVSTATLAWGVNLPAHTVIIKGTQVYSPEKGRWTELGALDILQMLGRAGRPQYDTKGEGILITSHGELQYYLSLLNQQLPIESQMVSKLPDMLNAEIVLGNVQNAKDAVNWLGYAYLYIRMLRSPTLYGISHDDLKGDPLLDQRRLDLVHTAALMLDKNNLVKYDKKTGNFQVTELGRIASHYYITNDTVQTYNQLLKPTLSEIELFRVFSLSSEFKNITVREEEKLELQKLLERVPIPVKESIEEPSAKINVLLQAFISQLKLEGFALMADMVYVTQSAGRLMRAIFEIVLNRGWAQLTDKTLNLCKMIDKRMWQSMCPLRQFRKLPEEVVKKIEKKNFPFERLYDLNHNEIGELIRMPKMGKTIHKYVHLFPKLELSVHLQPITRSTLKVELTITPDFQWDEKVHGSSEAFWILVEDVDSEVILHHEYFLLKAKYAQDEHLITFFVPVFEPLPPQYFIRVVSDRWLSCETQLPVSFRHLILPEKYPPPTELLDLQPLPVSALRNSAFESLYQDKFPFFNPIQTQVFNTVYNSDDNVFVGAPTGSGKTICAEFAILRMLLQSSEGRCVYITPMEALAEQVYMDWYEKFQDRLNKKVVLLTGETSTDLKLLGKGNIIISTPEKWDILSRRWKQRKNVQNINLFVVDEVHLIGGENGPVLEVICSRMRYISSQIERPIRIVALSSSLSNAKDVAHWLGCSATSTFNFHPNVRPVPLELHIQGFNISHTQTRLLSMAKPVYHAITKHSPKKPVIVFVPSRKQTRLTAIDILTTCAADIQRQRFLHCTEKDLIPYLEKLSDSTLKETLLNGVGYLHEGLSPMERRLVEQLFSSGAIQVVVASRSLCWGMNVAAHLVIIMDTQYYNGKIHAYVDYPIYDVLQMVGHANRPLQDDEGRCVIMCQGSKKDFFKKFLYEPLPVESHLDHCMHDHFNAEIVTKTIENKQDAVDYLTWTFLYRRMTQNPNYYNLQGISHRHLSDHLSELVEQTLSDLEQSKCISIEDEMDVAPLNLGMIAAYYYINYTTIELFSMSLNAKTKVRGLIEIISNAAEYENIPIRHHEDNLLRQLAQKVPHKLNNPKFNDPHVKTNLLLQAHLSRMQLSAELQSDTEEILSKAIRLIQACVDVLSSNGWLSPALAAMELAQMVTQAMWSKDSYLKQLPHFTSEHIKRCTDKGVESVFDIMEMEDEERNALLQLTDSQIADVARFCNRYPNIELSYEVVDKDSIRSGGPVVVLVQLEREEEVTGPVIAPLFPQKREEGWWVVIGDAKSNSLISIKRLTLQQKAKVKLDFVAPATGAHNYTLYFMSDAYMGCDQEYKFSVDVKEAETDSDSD
observation-type: IC50

Query: What value of IC50 has been reported for the following compound? O=C(c1cnn2cc(Br)ccc12)N1CCN(C(=O)c2ccc(Br)cc2)[C@@H](c2ccc(Cl)cc2)C1
Response: > 100 µM
